# credit: patent US7517913B2

- target or system: RNase P from Dictyostelium discoideum
- method summary: RNase P inhibition (pre-tRNA(Ser) cleavage, double reciprocal plots and slope replots)
- condition details: D. discoideum RNase P; 37° C., buffer D, 10% DMSO; from negative intercept of the slope replots
Where a name gives a salt, the structure may show the parent alone.
quantity kind: Ki

molecule	Ki
COc1cc(C)c(/C=C/C(C)=C/C=C/C(C)=C/C(=O)NCCCNCCCCNCCCN)c(C)c1C [N^1-Aci-Spermine (3DIIb). 3 HCl, N^1-Aci-Spermine]	2.45 µM

Given the entry CCOC(=O)c1ccc(/C=C(\C)c2ccc3c(c2)C(C)(C)CCC3(C)C)cc1 , report its measured Ki.
4350 µM

Same question, C/C(=C\c1ccc(C(=O)O)cc1)c1ccc2c(c1)C(C)(C)CCC2(C)C this time
45 µM
